Target: Histamine H4 receptor (Rattus norvegicus)
Test: Antagonist activity at rat histamine H4 receptor assessed as decrease in intracellular calcium by FLIPR
Type: functional, cell-based
Reported pKb is given for each of the following compounds.
readout-kind: pKb

- Nc1nc(N2C[C@H]3CNC[C@H]3C2)c2c(n1)C1(CCCC1)CCC2 (stereo in doubt; 34): 5.65
- Nc1nc2c(c(N3C[C@H]4CCCN[C@H]4C3)n1)CCCCC2c1ccccc1 (stereo not given in full): 8.24
- CNC1CN(c2nc(N)nc3c2CCCC32CCCC2)C1: 7.6
- Nc1nc(N2CC(N)C2)c2c(n1)C1(CCCC1)CCC2: 4.63
